# Experimental protocol: chemical genetic growth profiling, strain panel (AID 1159580);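 also: tested at 20 µM; growth read once vehicle control cultures reached saturation at 30 °C; lower values mean less growth of the strain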
# Setup conditions: S. cerevisiae deletion strains, growth OD, locus YFR010W, strain ubp6
Screen size: about 5,500 compounds; about 2,000 (36%) were called active. Not shown: some 18% with an inconclusive outcome. Rule as the data show it: active = normalized growth mostly below about 0.91 (no sharp cut-off); inconclusive = no clear call, values can overlap the other calls; inactive = mostly above about 0.92. The list shows a part of the results.
Classes used: active, inactive

Compound | Class label
C#C[C@]1(O)CCC2C3CCC4=CC(=O)CC[C@@H]4C3CC[C@@]21C (some centres not stated) | inactive
C#C[C@]1(OC(C)=O)CCC2C3CCC4=C/C(=N\O)CCC4C3CC[C@@]21CC (some centres not stated) | active
Nc1c2c(nc3ccccc13)CCCC2O (configuration not stated) | inactive
C#C[C@]1(O)CCC2C3CCC4=C(CCC(=O)C4)C3CC[C@@]21C (some centres not stated) | inactive
C[C@]12CCC(=O)C=C1CCC1C2[C@@H](O)C[C@@]2(C)C1CC[C@]2(O)C(=O)CO (some centres not stated) | inactive
CCOc1ccc2nc3cc(N)ccc3c(N)c2c1 | active
NNc1nncc2ccccc12 | inactive
